# key: entry, value: % Activation
- measurement-target: ΔF508-CFTR (Homo sapiens, UniProt P13569, DEL508-508)
- Construct: host or cells: CFBE41o-, doxycycline-inducible
- Sequence (P13569 with tags, fused parts or gaps DEL508-508): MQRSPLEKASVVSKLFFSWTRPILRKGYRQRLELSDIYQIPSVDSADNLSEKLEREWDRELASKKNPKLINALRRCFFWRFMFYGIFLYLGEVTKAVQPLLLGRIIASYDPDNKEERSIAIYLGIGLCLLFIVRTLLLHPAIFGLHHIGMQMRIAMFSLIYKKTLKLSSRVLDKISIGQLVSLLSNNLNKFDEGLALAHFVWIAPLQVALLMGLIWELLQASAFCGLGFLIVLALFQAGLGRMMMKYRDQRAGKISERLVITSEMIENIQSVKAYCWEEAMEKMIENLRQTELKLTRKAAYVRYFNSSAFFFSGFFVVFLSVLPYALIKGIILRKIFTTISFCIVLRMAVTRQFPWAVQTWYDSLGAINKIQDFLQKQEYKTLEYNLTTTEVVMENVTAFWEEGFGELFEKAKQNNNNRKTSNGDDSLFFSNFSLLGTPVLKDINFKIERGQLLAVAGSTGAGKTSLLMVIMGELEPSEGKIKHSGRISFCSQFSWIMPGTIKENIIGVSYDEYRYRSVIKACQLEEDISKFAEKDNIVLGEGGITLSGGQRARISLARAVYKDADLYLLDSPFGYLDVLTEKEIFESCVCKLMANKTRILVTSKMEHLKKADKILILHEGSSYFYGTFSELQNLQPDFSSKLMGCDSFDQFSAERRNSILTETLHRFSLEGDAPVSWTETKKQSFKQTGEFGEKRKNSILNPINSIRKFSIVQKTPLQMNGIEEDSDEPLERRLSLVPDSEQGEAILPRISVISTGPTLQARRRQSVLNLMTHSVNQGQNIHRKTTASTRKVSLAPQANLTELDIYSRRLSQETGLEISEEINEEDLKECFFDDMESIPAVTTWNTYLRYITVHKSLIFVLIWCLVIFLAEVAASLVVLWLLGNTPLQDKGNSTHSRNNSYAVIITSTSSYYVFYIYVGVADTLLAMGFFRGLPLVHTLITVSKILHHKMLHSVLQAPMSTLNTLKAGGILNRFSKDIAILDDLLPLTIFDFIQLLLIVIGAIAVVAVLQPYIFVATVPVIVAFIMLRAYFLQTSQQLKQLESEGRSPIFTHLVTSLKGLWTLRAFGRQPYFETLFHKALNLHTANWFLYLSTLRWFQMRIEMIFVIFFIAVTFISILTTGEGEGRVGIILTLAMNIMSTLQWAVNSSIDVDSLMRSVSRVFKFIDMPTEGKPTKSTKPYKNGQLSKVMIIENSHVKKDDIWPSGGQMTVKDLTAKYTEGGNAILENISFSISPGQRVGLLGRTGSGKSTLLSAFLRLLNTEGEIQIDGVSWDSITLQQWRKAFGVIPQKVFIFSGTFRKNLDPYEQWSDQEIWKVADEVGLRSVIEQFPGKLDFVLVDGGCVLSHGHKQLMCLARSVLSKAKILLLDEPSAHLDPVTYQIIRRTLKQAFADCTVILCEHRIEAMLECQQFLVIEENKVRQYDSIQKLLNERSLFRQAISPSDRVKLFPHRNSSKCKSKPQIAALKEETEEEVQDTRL
- test-summary: CFTR cell surface levels using HRP-tagged ΔF508-CFTR expressing CFBE cells, intrinsic corrector capacity
- Type: cell-based
- Set-up: concentration or dose not given beside the values
- assay-conditions: HRP-tagged ΔF508-CFTR expressing CFBE41o- cells; compound alone (intrinsic corrector capacity); 20 hours at 33° C.
Number only, in %; omit the unit.

Solved entries (count: 3):
compound	value-units	value-measured
Cc1cc(C)cc(-n2nc(C)c3c(-c4ccc(N5CCOCC5)cc4)cc(C(=O)NS(C)(=O)=O)nc32)c1 [Compound 24]	%	193.75
CN(C)S(=O)(=O)NC(=O)c1cc(N2CCC(N3CCC(F)CC3)CC2)c2c(C3CCC3)nn(-c3ccc(F)cc3)c2n1 [Compound 525]	%	274.75
CC(C)c1nn(-c2ccnc(N3CCOCC3)c2)c2nc(C(=O)NS(C)(=O)=O)cc(OCC3CCOCC3)c12 [Compound 336]	%	107.2

Okay, now this compound:
Tell me the measured % Activation of CCS(=O)(=O)NC(=O)c1cc(-c2ccc(N3CCOCC3)cc2)c2c(C)nn(-c3ccc(F)c(F)c3)c2n1 [Compound 116] , please.
295.57

* * *

- measurement-target: ΔF508-CFTR (Homo sapiens, UniProt P13569, DEL508-508)
- Construct: host or cells: CFBE41o-, doxycycline-inducible
- test-summary: CFTR cell surface levels using HRP-tagged ΔF508-CFTR expressing CFBE cells, in the presence of a co-corrector
- Assay type: cell-based
- assay-conditions: HRP-tagged ΔF508-CFTR CFBE cells, in the presence of 3 μM co-corrector
Please enter true where % Activation is greater than or equal to 400%, and false where it is lower.

substance-smiles	group
CO[C@H]1C[C@@H](c2nn(-c3ccccc3)c3nc(C(=O)NS(C)(=O)=O)cc(-c4ccc(N5CCC(C#N)CC5)nc4)c32)C1	true
CCS(=O)(=O)NC(=O)c1cc(-c2ccc(N3CCOCC3)cc2)c2c(C)nn(-c3ccc(F)cc3F)c2n1	true
COCCN(C)c1cccc(-n2nc(C(C)C)c3c(-c4ccc(N5CCOCC5)cc4)cc(C(=O)NS(C)(=O)=O)nc32)c1	true
CCS(=O)(=O)NC(=O)c1cc(N2CCC(N3CCCCC3)CC2)c2c(C3CCC3)nn(-c3ccc(F)cc3)c2n1	true
CC(C)Oc1nn(C2CCCCC2)c2nc(C(=O)NS(C)(=O)=O)cc(-c3ccc(C(=O)N4CC(N(C)C)C4)cc3)c12	true
CC(C)c1nn(-c2ccc(F)cc2F)c2nc(C(=O)NS(C)(=O)=O)cc(-c3ccc(N4CCC(C#N)CC4)cc3)c12	true
CC(C)c1nn(C2CCCCC2)c2nc(C(=O)NS(C)(=O)=O)cc(-c3cnc(N(C)C)nc3)c12	false
COC1CCN(c2cc(C(=O)NS(=O)(=O)C3CCOCC3)nc3c2c(C2CCC2)nn3-c2ccccc2)CC1	false
CC(C)N1CCN(C2CCN(c3cc(C(=O)NS(=O)(=O)N(C)C)nc4c3c(C3CCC3)nn4C3CCCCC3)CC2)CC1	true
CS(=O)(=O)NC(=O)c1cc(N2CC3(CCOCC3)C2)c2c(C3CCC3)nn(-c3ccccc3)c2n1	false

I'd appreciate it if you could say whether CC(C)c1nn(-c2cccc(N(C)C)c2)c2nc(C(=O)NS(C)(=O)=O)cc(-c3ccc(N(C)C4CCOCC4)cc3)c12 has % Activation at least equal to 400%.
true

Hi, just wondering whether CCS(=O)(=O)NC(=O)c1cc(N2CCCCC2)c2c(C)nn(-c3ccccc3)c2n1 shows % Activation of 400% or higher.
false

* * *

- measurement-target: ΔF508-CFTR (Homo sapiens, UniProt P13569, DEL508-508)
- Construct: host or cells: CFBE41o-, doxycycline-inducible
- test-summary: CFTR cell surface levels using HRP-tagged ΔF508-CFTR expressing CFBE cells, intrinsic corrector capacity
- Format: cell-based
- Design: concentration or dose not given beside the values
- assay-conditions: HRP-tagged ΔF508-CFTR expressing CFBE41o- cells; compound alone (intrinsic corrector capacity); 20 hours at 33° C.
Each item that follows carries a reported % Activation.

What does the record list as % Activation for CC(C)c1nn(-c2ccc(F)cc2)c2nc(C(=O)NS(C)(=O)=O)cc(OCC3CCOCC3)c12 [Compound 284] ?
154.4%

Fill in the blank: the reported % Activation of CC(C)c1nn(-c2ccc(F)cc2)c2nc(C(=O)NS(C)(=O)=O)cc(N3CCC4(CCCO4)CC3)c12 [Compound 180] is ____.
129.5%

I have this molecule here, COC(C)(C1CCN(c2cc(C(=O)NS(C)(=O)=O)nc3c2c(C2CCC2)nn3-c2ccccc2)CC1)C(F)(F)F (centres unmarked) [Compound 242] , and I need its recorded % Activation.
242.1%

What % Activation value was documented for this molecule, COC(C)C1CCN(c2cc(C(=O)NS(C)(=O)=O)nc3c2c(C2CCC2)nn3-c2ccccc2)CC1 (centres unmarked) [Compound 241] ?
261.93%

Give the measured % Activation of COc1ccc(-c2cc(C(=O)NS(C)(=O)=O)nc3c2c(C)nn3-c2ccccc2)cc1 [Compound 14] .
148.9%

Name the recorded % Activation for CN(c1ccc(-c2cc(C(=O)NS(C)(=O)=O)nc3c2c(C2CCC2)nn3-c2cccc(N3CCCC3)c2)cc1)C1CCOCC1 [Compound 111] .
411.63%

Given the entry COCCS(=O)(=O)NC(=O)c1cc(N2CCC(N3CCOCC3)CC2)c2c(C3CCC3)nn(-c3ccc(F)cc3)c2n1 [Compound 407] , report its measured % Activation.
331.45%

What % Activation value was documented for this molecule, CN(C)S(=O)(=O)NC(=O)c1cc(OCC2CCN(C3CC3)CC2)c2c(C3CCC3)nn(-c3ccc(F)cc3)c2n1 [Compound 616] ?
144.05%

I'd like to know its % Activation. The molecule in question is COCCS(=O)(=O)NC(=O)c1cc(N2CCC(COC)CC2)c2c(C3CCC3)nn(-c3ccccc3)c2n1 [Compound 256]
331.85%

I would be grateful if you could share the reported % Activation for CN1CCC2(CC1)CCN(c1cc(C(=O)NS(=O)(=O)N3CCOCC3)nc3c1c(C1CCC1)nn3-c1ccc(F)cc1)CC2 [Compound 685] .
144.3%

Which value of % Activation has been reported for CC(C)Oc1cc(-n2nc(C3CCC3)c3c(N4CCC(N5CCOCC5)CC4)cc(C(=O)NS(C)(=O)=O)nc32)ccn1 [Compound 530] in the records?
323.1%

Request the reported % Activation associated with CS(=O)(=O)NC(=O)c1cc(N2CC3(CCC3)C2)c2c(C3CCC3)nn(-c3ccccc3)c2n1 [Compound 214]
103.6%

Look at this molecule and give its reported % Activation. CCS(=O)(=O)NC(=O)c1cc(N2CCC(N3CCOCC3)CC2)c2c(C3CCC3)nn(-c3ccc(F)cc3)c2n1 [Compound 466]
318.7%

Item under review: CCCN(C)S(=O)(=O)NC(=O)c1cc(N2CCC(N3CCOCC3)CC2)c2c(C3CCC3)nn(-c3ccccc3)c2n1 [Compound 432] . Reported % Activation?
243.6%

* * *

- measurement-target: ΔF508-CFTR (Homo sapiens, UniProt P13569, DEL508-508)
- Construct: host or cells: CFBE41o-, doxycycline-inducible
- test-summary: CFTR cell surface levels using HRP-tagged ΔF508-CFTR expressing CFBE cells, in the presence of a co-corrector
- Format: cell-based
- assay-conditions: HRP-tagged ΔF508-CFTR CFBE cells, in the presence of 3 μM co-corrector
measured-parameter: % Activation (%)
Report only the number, with the unit % understood.

A selection of reference data follows.
compound	value-units	% Activation
COCC1CCN(c2cc(C(=O)NS(=O)(=O)c3cnn(C)c3)nc3c2c(C2CCC2)nn3-c2ccccc2)CC1 [Compound 245]	%	460
COCCS(=O)(=O)NC(=O)c1cc(N2CCC(CN3CCCC3)CC2)c2c(C3CCC3)nn(-c3ccccc3)c2n1 [Compound 464]	%	423.3
CS(=O)(=O)NC(=O)c1cc(N2CCC(N3CCOCC3)CC2)c2c(C3CCC3)nn(-c3cccc(C(F)(F)F)c3)c2n1 [Compound 516]	%	545.3
CC(C)c1nn(-c2ccc(F)cc2)c2nc(C(=O)NS(C)(=O)=O)cc(N3CC[C@@H](O)[C@H](F)C3)c12 [Compound 344]	%	374.5
COCC1CCN(c2cc(C(=O)NS(=O)(=O)N3CCOCC3)nc3c2c(C2CCC2)nn3-c2ccccc2)CC1 [Compound 396]	%	385.8

Query (compound): Cc1nn(-c2ccccc2)c2nc(C(=O)NS(C)(=O)=O)cc(N3CCCCC3)c12 [Compound 13] ; field requested: % Activation
341.75

Quick one: % Activation of COCC1CCN(c2cc(C(=O)N3CCCS3(=O)=O)nc3c2c(C2CCC2)nn3-c2ccccc2)CC1 [Compound 667] ?
225.5
